melting point by entry:

For orientation, consider the following solved cases.
molecule | melting point
[C-]#[N+]CS(=O)(=O)c1ccc(C)cc1 [compound 3b] | 112 to 113 °C
[C-]#[N+]CS(=O)(=O)c1ccc(F)cc1 [compound 3e] | 63 °C
[C-]#[N+]CS(=O)(=O)c1ccc(Cl)cc1 [compound 3f] | 109 to 110 °C (dec.)
[C-]#[N+]CS(=O)(=O)c1c(OC)cccc1OC [compound 3p] | 90 to 91 °C
[C-]#[N+]CS(=O)(=O)c1ccc(OC)c(OC)c1 [compound 3k] | 101 to 102 °C
[C-]#[N+]CS(=O)(=O)c1ccc2ccccc2c1 [compound 3d, 2-((isocyanomethyl)sulfonyl)naphthalene] | 104 to 105 °C
[C-]#[N+]CS(=O)(=O)c1cc(Cl)cc(Cl)c1 [compound 3h] | 82 to 83 °C

# evaluate next
-- ask Give reported melting point value for [C-]#[N+]CS(=O)(=O)c1ccccc1 [compound 3a, ((Isocyanomethyl)sulfonyl)benzene]
-- reply 89 to 90 °C
